test system: 786-0 renal; assay: NCI tumour cell line growth inhibition, 48 h
measurementKind: TGI

Reference set (5 entries):
[[record]]
compound = "OCC1C(O)C(O)[C@@H]2SCCN12 (some centres not stated)"
measurementkind = "TGI"
recordedresult = "> 100 µM"

[[record]]
compound = "Nc1ccc(-c2nc3cc(F)ccc3s2)cc1Br"
measurementkind = "TGI"
recordedresult = "> 100 µM"

[[record]]
compound = "O=C1CCCCC1C1(O)C(=O)Nc2cc(F)ccc21 (configuration not stated)"
measurementkind = "TGI"
recordedresult = "> 100 µM"

[[record]]
compound = "C=CC1(c2ccc(Cl)c(Cl)c2)OCCO1"
measurementkind = "TGI"
recordedresult = "> 100 µM"

[[record]]
compound = "CCOC(=O)[C@H](Cc1ccccc1)NC(=O)c1nc[nH]c1[N+](=O)[O-]"
measurementkind = "TGI"
recordedresult = "> 100 µM"


Param readout= TGI; system= 786-0 renal; entry= NC(CCc1ccccc1)(C(=O)O)c1ccccc1 (configuration not stated) ; returns value.
> 100 µM

Tell me reported TGI for S=C(Nc1ccc(-c2nc3ccccc3s2)cc1)Nc1ccccn1 , tested with 786-0 renal.
70.4 µM

Notebook entry, 786-0 renal assay: TGI of Cc1nc2ccc(N=Nc3c(O)ccc4ccccc34)cc2[nH]1 = ?
54.4 µM

API: value(readout= TGI, system= 786-0 renal, query= O=[N+]([O-])c1ccccc1S(=O)(=O)c1ccccc1[N+](=O)[O-] )
> 100 µM

# query: TGI | item CCOC(=O)c1c(N2CCOCC2)[nH]c(=O)c(C(c2c(O)c(C(=O)OCC)c(N3CCOCC3)[nH]c2=O)C(C)C)c1O | system: 786-0 renal
> 100 µM

What value of TGI on 786-0 renal does N#CC(NC12CC3CC(CC(C3)C1)C2)c1ccccc1 (configuration not stated) have?
> 100 µM

Form field: TGI recorded for C/C(=C\CNc1ncnc2nc(Cl)[nH]c12)CO with 786-0 renal (enter value)
> 100 µM

###

# key: entry, value: log10(TGI)
tested on: COLO 205 colon; experiment: NCI tumour cell line growth inhibition, 48 h
On a log10 scale: recorded TGI, unit µM.

Consider the worked cases shown below.
[[record]]
compound = "CCOC(=O)C(Cc1ccc(OC(=O)c2ccc(OC)cc2OC)cc1)NC(=O)C(F)(F)F (stereo unspecified)"
measurementkind = "log10(TGI)"
recordedresult = 1.64

[[record]]
compound = "CC(C)Cc1ccc(C(C)/C=C2\\CCC(CN3CCOCC3)C2=O)cc1 (stereo unspecified)"
measurementkind = "log10(TGI)"
recordedresult = 1.68

[[record]]
compound = "NCC(=O)Nc1ccc(-n2nc(C(F)(F)F)cc2-c2ccc3c(ccc4ccccc43)c2)cc1"
measurementkind = "log10(TGI)"
recordedresult = 0.46


Then this compound:
Name the recorded log10(TGI) for O=C1OCC2=C1C(c1ccccc1)c1cc3c(cc1N2CCO)CCC3 (stereo unspecified) .
-0.48

###

test system: ACHN renal; test: NCI tumour cell line growth inhibition, 48 h
measurementKind: TGI

Some solved cases for reference:
[[record]]
compound = "CCOC(=O)C(Cc1ccc(OC(=O)c2ccc(OC)cc2OC)cc1)NC(=O)C(F)(F)F (centres undefined)"
measurementkind = "TGI"
recordedresult = "30.9 µM"

[[record]]
compound = "CN(C)c1cc2c(cc1Sc1nc3c(N)nccc3n1CCNCC(C)(C)C)OCO2"
measurementkind = "TGI"
recordedresult = "> 59.6 µM"

[[record]]
compound = "CNC(=S)NNC(=O)c1c(C)nc2sccn12"
measurementkind = "TGI"
recordedresult = "> 100 µM"


Given the entry CSc1nc2nc(C)c(C)nc2c(=O)[nH]1 , report its measured TGI.
> 100 µM

I'd like to know its TGI. The compound in question is C[CH2][Sn]1([CH2]C)[O]C2C(O)OC(CO)C(O)C2[O]1 (centres undefined)
> 100 µM

So what's the measured TGI for this one? Nc1ccccc1C#Cc1ccccc1C#Cc1ccccc1N
29.7 µM

Where do these numbers come from? They come from PubChem BioAssay (NCI).
